- Tested on: ZR-75-1
- Assay: viability inhibition at highest dose (% inhibition); higher = more growth inhibition
- Test settings: 4-OH-tamoxifen in medium 1 µM; 72 h
Counter-ions that a name gives are not always drawn.
For each of the molecules below, state its viability inhibition at highest dose.
Answers are plain numbers.

Sample records with viability inhibition at highest dose:
Molecule: N#CC[C@H](C1CCCC1)n1cc(-c2ncnc3[nH]ccc23)cn1 (drug 10000 nM)
viability inhibition at highest dose: -1.41
//
Molecule: c1ccc([C@H]2CN3CCSC3=N2)cc1 [Levamisole, (Tetramisole hydrochloride)] (drug 10000 nM)
viability inhibition at highest dose: 3.25
//
Molecule: CC(=O)O[C@@]12CO[C@@H]1C[C@H](O)[C@@]1(C)C(=O)[C@H](O)C3=C(C)[C@@H](OC(=O)[C@H](O)[C@@H](NC(=O)OC(C)(C)C)c4ccccc4)C[C@@](O)([C@@H](OC(=O)c4ccccc4)[C@H]21)C3(C)C [Docetaxel] (drug 1000 nM)
viability inhibition at highest dose: 1.03
//
Molecule: CC[C@]1(O)C[C@H]2CN(CCc3c([nH]c4ccccc34)[C@@](C(=O)OC)(c3cc4c(cc3OC)N(C=O)[C@H]3[C@@](O)(C(=O)OC)[C@H](OC(C)=O)[C@]5(CC)C=CCN6CC[C@]43[C@@H]65)C2)C1 [Vincristine] (drug 10000 nM)
viability inhibition at highest dose: 28.5
//
Molecule: Cc1c2oc3c(C)ccc(C(=O)N[C@@H]4C(=O)N[C@H](C(C)C)C(=O)N5CCC[C@H]5C(=O)N(C)CC(=O)N(C)[C@@H](C(C)C)C(=O)O[C@@H]4C)c3nc-2c(C(=O)N[C@@H]2C(=O)N[C@H](C(C)C)C(=O)N3CCC[C@H]3C(=O)N(C)CC(=O)N(C)[C@@H](C(C)C)C(=O)O[C@@H]2C)c(N)c1=O [Dactinomycin] (drug 1000 nM)
viability inhibition at highest dose: 53.8
//
Molecule: O=C(NC[C@H](O)CO)c1ccncc1Nc1ccc(I)cc1F (drug 10000 nM)
viability inhibition at highest dose: 10

Hello, I would appreciate it if you could give viability inhibition at highest dose for each entry below.
1. C[C@@H]1C=C2C(=O)O[C@@H]3CC[C@H](C1)[C@]23O [Galiellalactone] (drug 50000 nM)
2. CNC(=O)c1cc(Oc2ccc(NC(=O)Nc3ccc(Cl)c(C(F)(F)F)c3)c(F)c2)ccn1 [Regorafenib (BAY 73-4506)] (drug 10000 nM)
3. CC1(C)CNc2cc(NC(=O)c3cccnc3NCc3ccncc3)ccc21 [Motesanib (AMG-706)] (drug 10000 nM)
4. CC(C)C(=O)Nc1ccc([N+](=O)[O-])c(C(F)(F)F)c1 [Flutamide] (drug 10000 nM)

Found:
1. -3.25
2. 18.3
3. -2.93
4. -3.17

Parameter requested: viability inhibition at highest dose. Apply to each item below.
1. C[C@@H](Oc1cc(-c2cnn(C3CCNCC3)c2)cnc1N)c1c(Cl)ccc(F)c1Cl [Crizotinib] (drug 1000 nM)
2. Cc1ccc(C(=O)Nc2ccc(CN3CCN(C)CC3)c(C(F)(F)F)c2)cc1C#Cc1cnc2cccnn12 (drug 1000 nM)
3. C#Cc1cccc(Nc2ncnc3cc(OCCOC)c(OCCOC)cc23)c1 [Erlotinib] (drug 10000 nM)
4. Cc1ccc(NC(=O)c2ccc(CN3CCN(C)CC3)cc2)cc1Nc1nc(-c2cccnc2)cs1 [Masitinib] (drug 10000 nM)

Found:
1. -5.41
2. 12
3. 12.2
4. 20.3

For each entry beneath this line, provide reported viability inhibition at highest dose.
1. CNCc1ccc(-c2[nH]c3cc(F)cc4c3c2CCNC4=O)cc1 (drug 10000 nM)
2. Oc1ccc2c(c1)CC[C@H](c1ccccc1)[C@@H]2c1ccc(OCCN2CCCC2)cc1 [Lasofoxifene] (drug 1000 nM)
3. CS(=O)(=O)N1CCN(Cc2cc3nc(-c4cccc5[nH]ncc45)nc(N4CCOCC4)c3s2)CC1 [Pictilisib (GDC-0941)] (drug 10000 nM)
4. CO[C@H]1C[C@@H]2CC[C@@H](C)[C@@](O)(O2)C(=O)C(=O)N2CCCC[C@H]2C(=O)O[C@H]([C@H](C)C[C@@H]2CC[C@@H](O)[C@H](OC)C2)CC(=O)[C@H](C)/C=C(\C)[C@@H](O)[C@@H](OC)C(=O)[C@H](C)C[C@H](C)/C=C/C=C/C=C/1C [Sirolimus (Rapamycin)] (drug 1000 nM)
5. Nc1nc(Cl)nc2c1ncn2[C@H]1C[C@H](O)[C@@H](CO)O1 [Cladribine] (drug 1000 nM)
6. CN(C)CCN1C(=O)c2cccc3cc(N)cc(c23)C1=O [Amonafide] (drug 10000 nM)

Found:
[-4.07, -2.22, 60.7, 31, 15.8, 17.1]

Fill in viability inhibition at highest dose for each of the 4 molecules listed.
1. Cc1ccc(-c2cc(C(F)(F)F)nn2-c2ccc(S(N)(=O)=O)cc2)cc1 [Celecoxib] (drug 10000 nM)
2. CCCCCOC(=O)Nc1nc(=O)n([C@@H]2O[C@H](C)[C@@H](O)[C@H]2O)cc1F [Capecitabine] (drug 10000 nM)
3. CC(C)(C)NC(=O)[C@H]1CC[C@H]2[C@@H]3CC[C@H]4NC(=O)C=C[C@]4(C)[C@H]3CC[C@]12C [Finasteride] (drug 10000 nM)
4. COc1nc(N)nc2c1ncn2[C@@H]1O[C@H](CO)[C@@H](O)[C@@H]1O [Nelarabine] (drug 10000 nM)

Found:
[11.6, 0.654, 7.55, 4.17]
